- subject-of-test: activated MMP-8 enzyme (Homo sapiens)
- Sequence (P22894 101-467): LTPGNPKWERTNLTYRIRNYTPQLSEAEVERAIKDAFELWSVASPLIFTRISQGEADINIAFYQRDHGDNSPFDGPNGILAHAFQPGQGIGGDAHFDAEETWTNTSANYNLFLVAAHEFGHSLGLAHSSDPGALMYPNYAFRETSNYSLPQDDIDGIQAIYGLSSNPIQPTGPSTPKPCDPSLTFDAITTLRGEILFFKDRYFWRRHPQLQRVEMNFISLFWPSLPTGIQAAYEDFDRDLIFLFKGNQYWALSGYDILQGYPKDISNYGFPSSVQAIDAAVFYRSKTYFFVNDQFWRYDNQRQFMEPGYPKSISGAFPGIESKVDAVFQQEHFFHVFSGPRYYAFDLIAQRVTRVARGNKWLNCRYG
- test-details: Assay for determining MMP-8 inhibition (OmniMMP fluorescent substrate)
- assay-conditions: read-out: MMP-8 Activity (IC50 MMP-8), Group
pIC50: −log10 of the molar value.
property-label: pIC50

Recorded pIC50, per entry:
{"columns": ["molecule", "pIC50"],
 "data": [
  ["O=C(NCc1ccc2c(c1)OCO2)c1nc2ccccc2c(=O)[nH]1", "4.70 to 6.60"],
  ["CCOC(=O)c1c(C)sc2nc(C(=O)NCc3ccc4c(c3)NC(=O)CO4)[nH]c(=O)c12", "4.70 to 6.60"],
  ["O=C1COc2ccc(CNC(=O)c3nc4scc(-c5cccs5)c4c(=O)[nH]3)cc2N1", "4.70 to 6.60"],
  ["NC(=O)Cc1csc2nc(C(=O)NCc3ccc4c(c3)NC(=O)CO4)[nH]c(=O)c12", "> 6.60"],
  ["O=C1COc2ccc(CNC(=O)c3nc4scc(C(F)(F)F)c4c(=O)[nH]3)cc2N1", "4.70 to 6.60"]
]}

Let us examine a further case.
Item: Cc1c(C(C)O)sc2nc(C(=O)NCc3ccc4c(c3)NC(=O)CO4)[nH]c(=O)c12 (centres unmarked) | pIC50: > 6.60
